# System: S. Typhimurium SL1344 (sifB::gfp) in RAW 264.7 macrophages
# experiment.notes: SAFIRE macrophage assay: intracellular bacterial load (GFP signal within macrophages)
# Assay type: cell-based, Salmonella enterica serotype Typhimurium
# measurement.setup: 25 uM; 'Toxic' given instead of a score
# Experimental: In SAFIRE, we used MATLAB software to count the number of macrophages that remain adherent and retain the red fluorescence of MitoTracker, an indicator of voltage across the mitochondrial inner membrane. […] Non-toxic analogs that reduced bacterial load by at least 60% at 5 µM and 25 µM in SAFIRE, as compared with DMSO, progressed and were evaluated in SAFIRE across eight or more concentrations, ranging from 0.001 µM to 50 µM (n = 2). […]
Decide by 25 uM Avg Antibacterial Score: equal to or exceeding 50 means Y, less means N.

Solved entries (count: 5):
# compound, cat
records = [
    ("COc1ccc(OCC(O)CN2CCC(Nc3nccc(C(F)(F)F)n3)CC2)cc1 (stereo not drawn)", "N"),
    ("NC1CCN(CC(O)COc2ccc(F)cc2)C1 (stereo not drawn)", "Y"),
    ("COCCCN(C)C1CCN(CC(O)COc2ccc(Cl)c(Cl)c2)CC1 (stereo not drawn)", "N"),
    ("NC1CCN(CC(O)COc2ccc(F)c(F)c2)CC1 (stereo not drawn)", "N"),
    ("O=C(O)C1CCN(CC(O)COc2ccc(Cl)c(Cl)c2)CC1 (stereo not drawn)", "Y"),
]

-- ask # check: 25 uM Avg Antibacterial Score of NC1CCN(CC(O)COc2cccc(Cl)c2)CC1 (stereo not drawn) is greater than or equal to 50
-- reply N

-- ask // query: OC(COc1ccccc1)CN1CCC(Nc2nccs2)CC1 (stereo not drawn)
-- reply Y
